// data source = paper PMC11063343

# measured_target: T1, full length SARS-CoV-2 spike protein (SARS-CoV-2, UniProt P0DTC2)
# T1 construct: source: bought: ACROBiosystems
# method: SPR
# settings: both partners purified
No end group written: not given here. *: point of attachment. Biotin = O=C1N[C@H]2[C@H](CS[C@H]2CCCCC(=O)*)N1
metric: Kd (mM)
# number only, unit mM dropped from output

IN: Form field: reported Kd of Biotin-MYCVFNRNEDACRYG (cysteine pairing not given here) [cellugyrin Inner loop 1A peptide]
OUT: 4.53
